Biological target: human RORγt ligand binding domain (RORγt LBD) (Homo sapiens)
Construct: His-tag (N); TurboTEV protease cleavage site (ENLYFQG) (N)
Experiment: RORγt ThermoFluor assay (thermal shift, ligand binding affinity)
Settings: estimated from concentration response of thermal shift
pKd: −log10 of the molar value.
The following compounds are listed with their measured pKd values.
value-kind: pKd

>>> observed_measurement("Cn1cncc1C(O)(c1ccc(C(F)(F)F)nc1)c1ccc2nc(C(F)(F)F)c(-c3ccccc3)c(Cl)c2c1 (stereo not shown)")
8.34
>>> observed_measurement("Cn1cncc1C(O)(c1ccnnc1)c1ccc2nc(Cl)c(-c3ccccc3)c(Cl)c2c1 (stereo not shown)")
7.68
>>> observed_measurement("CCN(CC)c1nc2ccc(C(O)(c3cccnc3)c3cccc(Cl)c3)cc2c(C#N)c1-c1ccccc1 (stereo not shown)")
5.74
>>> observed_measurement("COC(c1ccc2nc(Cl)c(-c3ccccc3)c(Cl)c2c1)(c1cnccn1)c1cncn1C (stereo not shown)")
6.00
>>> observed_measurement("CN(C)c1c(-c2ccccc2)c(Cl)nc2ccc(C(O)(c3cccnc3)c3cccc(Cl)c3)cc12 (stereo not shown)")
5.85
>>> observed_measurement("COc1nc2c(C)cc(C(O)(c3ccc(F)cc3)c3cncn3C)cc2c(Cl)c1-c1cccc(F)c1 (single isomer, unassigned) [Example 178c]")
7.54
>>> observed_measurement("Cc1cc(C(O)(c2ccc(Cl)cc2)c2ccc3nc(N(C)C)c(-c4ccccc4)c(Cl)c3c2)on1 (stereo not shown)")
6.54

----------
Molecular target: human RORγt LBD (Homo sapiens, UniProt P51449)
Sequence (P51449 258-518): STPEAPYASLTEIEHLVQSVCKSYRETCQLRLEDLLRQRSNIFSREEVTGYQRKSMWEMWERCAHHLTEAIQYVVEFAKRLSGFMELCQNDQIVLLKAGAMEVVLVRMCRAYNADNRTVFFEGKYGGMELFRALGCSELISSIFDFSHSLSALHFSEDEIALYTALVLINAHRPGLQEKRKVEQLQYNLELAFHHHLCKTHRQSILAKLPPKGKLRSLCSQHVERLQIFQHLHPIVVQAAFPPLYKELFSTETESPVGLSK
Assay: RORγt reporter assay (GAL4-RORγt LBD luciferase in HEK293T cells)
Details: HEK293T cells, 24 hours compound treatment
pIC50: −log10 of the molar value.
value-kind: pIC50

>>> observed_measurement("Cn1cncc1C(O)(c1ccncc1)c1ccc2nc(N3CCN(c4ccccc4)CC3)c(-c3ccccc3)c(Cl)c2c1 (stereo not drawn)")
"~5.40"
>>> observed_measurement("COC1CCN(c2nc3ccc(C(O)(c4ccncc4)c4cncn4C)cc3c(Cl)c2-c2ccccc2)CC1 (stereo not drawn)")
"~5.70"
>>> observed_measurement("Cn1ccnc1C(O)(c1ccnnc1)c1ccc2nc(Cl)c(-c3ccccc3)c(Cl)c2c1 (stereo not drawn)")
"~5.70"

----------
The following compounds are listed with their measured Kd values.
Target: human RORγt ligand binding domain (RORγt LBD) (Homo sapiens, UniProt P51449)
Construct: His-tag (N); TurboTEV protease cleavage site (ENLYFQG) (N)
Test: RORγt ThermoFluor assay (thermal shift, ligand binding affinity)
Details: estimated from concentration response of thermal shift
value-kind: Kd (nM)

>>> observed_measurement("COc1nc2ccc(C(O)(c3cccnc3)c3cccc(Cl)c3)cc2c(Cl)c1-c1ccccc1 (centres unmarked)")
55
>>> observed_measurement("CC(C)(C)OC(=O)N1CCC(C(O)(c2cccnc2)c2ccc3nc(Cl)c(-c4ccccc4)c(Cl)c3c2)CC1 (centres unmarked)")
220
>>> observed_measurement("Oc1ccc(C(O)(c2cccnc2)c2ccc3nc(Cl)c(-c4ccccc4)c(Cl)c3c2)cc1 (centres unmarked)")
180
>>> observed_measurement("OC(c1ccc(Cl)nc1)(c1cccc(F)c1)c1ccc2ncc(-c3ccccc3)c(Cl)c2c1 (centres unmarked)")
1800
>>> observed_measurement("CCN(CC)c1nc2ccc(C(O)(c3ccncc3)c3cncn3C)cc2c(OC)c1-c1ccccc1 (centres unmarked)")
39
>>> observed_measurement("COc1nc2c(C)cc(C(O)(c3ccc(C(F)(F)F)nc3)c3cncn3C)cc2c(Cl)c1-c1ccc(OC(F)(F)F)cc1 (racemic) [Example 183a]")
9.3
>>> observed_measurement("CCN(CC)c1nc2ccc(C(O)(c3cccnc3)c3cccc(Cl)c3)cc2c(OC)c1-c1ccccc1 (centres unmarked)")
1300
>>> observed_measurement("OC(c1ccc(Cl)nc1)(c1cccc(Cl)c1)c1ccc2nc(Cl)c(-c3ccccc3)c(Cl)c2c1 (centres unmarked)")
40
>>> observed_measurement("COc1cccc(C(O)(c2cccnc2)c2ccc3nc(Cl)c(-c4ccccc4)c(Cl)c3c2)c1 (centres unmarked)")
39
>>> observed_measurement("Cn1cncc1C(O)(c1ccc(Cl)nc1)c1ccc2nc(Cl)c(-c3ccccc3)c(Cl)c2c1 (centres unmarked)")
15
>>> observed_measurement("OC(c1ccccc1)(c1ccc2nc(C(F)(F)F)c(-c3ccccc3)c(C(F)(F)F)c2c1)C1CCNCC1 (centres unmarked)")
400

----------
System: IL-17 production by CD4 T cells
Test: Human Th17 assay (IL-17 production by CD4 T cells under Th17 differentiation conditions)
Assay type: cell-based
Conditions: Homo sapiens, CD4+ T, 72 h, IL-17 in supernatant after 3 days
pIC50: −log10 of the molar value.
The following compounds are listed with their measured pIC50 values.
value-kind: pIC50

>>> observed_measurement("COc1nc2ccc(C(O)(c3cccnc3)c3cccc(Cl)c3)cc2c(Cl)c1-c1ccccc1 (centres unmarked)")
6.92
>>> observed_measurement("CC(=O)N1CCC(C(O)(c2ccc3nc(C(F)(F)F)c(-c4ccccc4)c(C(F)(F)F)c3c2)c2cncn2C)CC1 (single isomer, unassigned) [Example 181b]")
6.92
>>> observed_measurement("OC(c1cccnc1)(c1ccc2nc(Cl)c(-c3ccccc3)c(Cl)c2c1)c1ccccn1 (centres unmarked)")
5.55
>>> observed_measurement("Cn1cncc1C(O)(c1ccc(C(F)(F)F)nc1)c1ccc2nc(C(F)(F)F)c(-c3ccccc3)c(C#N)c2c1 (single isomer, unassigned) [Example 173c]")
6.89
>>> observed_measurement("CCOc1nc2ccc(C(O)(c3ccncc3)c3cncn3C)cc2c(Cl)c1-c1ccccc1 (centres unmarked)")
7.17
>>> observed_measurement("COc1ccc(C(O)(c2ccc3nc(Cl)c(-c4ccccc4)c(Cl)c3c2)c2cncn2C)cn1 (centres unmarked)")
6.23
>>> observed_measurement("N#Cc1ccc(C(O)(c2cccc(Cl)c2)c2ccc3nc(C#N)c(-c4ccccc4)c(C#N)c3c2)cn1 (centres unmarked)")
7.37
>>> observed_measurement("Cn1cncc1C(O)(c1ccncc1)c1ccc2nc(Cl)c(-c3ccccc3)c(Cl)c2c1 (centres unmarked)")
6.89
>>> observed_measurement("Cn1nncc1C(O)(c1ccc2nc(C(F)(F)F)c(-c3ccccc3)c(C(F)(F)F)c2c1)c1cnnn1C")
8.15
>>> observed_measurement("CCN(C)c1nc2ccc(C(O)(c3ccncc3)c3cncn3C)cc2c(Cl)c1-c1ccccc1 (centres unmarked)")
7.44
>>> observed_measurement("Cc1nc(C(O)(c2ccc3nc(Cl)c(-c4ccccc4)c(Cl)c3c2)c2cncn2C)cs1 (centres unmarked)")
5.74
>>> observed_measurement("OC(c1ccc(Cl)cc1)(c1cncnc1)c1ccc2nc(Cl)c(-c3ccccc3)c(Cl)c2c1 (centres unmarked)")
6.04
>>> observed_measurement("Cn1cncc1C(O)(c1ccc(F)nc1)c1ccc2nc(Cl)c(-c3ccccc3)c(Cl)c2c1 (centres unmarked)")
6.48
>>> observed_measurement("Cc1cc(C(O)(c2ccc3nc(Cl)c(-c4ccccc4)c(Cl)c3c2)c2cncn2C)ccn1 (centres unmarked)")
7.57
>>> observed_measurement("CC(=O)N1CCC(C(O)(c2ccccc2)c2ccc3nc(C(F)(F)F)c(-c4ccccc4)c(C(F)(F)F)c3c2)CC1 (racemic) [Example 169a]")
7.18
>>> observed_measurement("Cc1ccc(C(O)(c2ccc3nc(Cl)c(-c4ccccc4)c(Cl)c3c2)c2cncn2C)c(C)n1 (centres unmarked)")
6.85

----------
Biological target: human RORγt LBD (Homo sapiens)
Assay: RORγt reporter assay (GAL4-RORγt LBD luciferase in HEK293T cells)
Details: HEK293T cells, 24 hours compound treatment
The following compounds are listed with their measured IC50 values.
value-kind: IC50

>>> observed_measurement("OC(c1cccnc1)(c1ccc2nc(Cl)c(-c3ccccc3)c(Cl)c2c1)c1ccccc1Cl (stereo not shown)")
"~200 nM"
>>> observed_measurement("Cn1cncc1C(O)(c1ccncc1)c1ccc2nc(N3CCC(O)CC3)c(-c3ccccc3)c(Cl)c2c1 (stereo not shown)")
"~2000 nM"
>>> observed_measurement("OC(c1cccnc1)(c1cccc(Cl)c1)c1ccc2ncc(-c3ccccc3)c(Cl)c2c1 (stereo not shown)")
"~3000 nM"
>>> observed_measurement("COc1ccc(C(O)(c2cccnc2)c2ccc3ncc(-c4ccccc4)c(Cl)c3c2)cc1 (stereo not shown)")
"~6000 nM"
